Here the recorded IC50 is given for each entry.
- Test system: MDA-MB-435 melanoma cell line
- METHOD: MTT assay, MDA-MB-435
- Format: cell-based
- STUDY CONDITIONS: Homo sapiens, 48 h, mean of triplicate assays ± SEM, read-out: Antiproliferative activity (IC50 value, µM) MDA-MB-435
Write the numeric value and follow it with the unit.

{"COMPOUND": "O=C(NCCNc1nccc(-c2c(-c3cccc(O)c3)nc3sccn23)n1)c1ccccc1", "IC50": "0.59 µM"}

# input for lookup
Query IC50 on MDA-MB-435 melanoma cell line for CNC(=O)c1cc(Oc2ccc(NC(=O)Nc3ccc(Cl)c(C(F)(F)F)c3)cc2)ccn1 [Sorafenib, sorafenib, reference compound]
3.16 µM
